target.or.system: human recombinant HDAC6 (Homo sapiens)
Construct: purchased Calbiochem 382180
Sequence (Q9UBN7 whole entry): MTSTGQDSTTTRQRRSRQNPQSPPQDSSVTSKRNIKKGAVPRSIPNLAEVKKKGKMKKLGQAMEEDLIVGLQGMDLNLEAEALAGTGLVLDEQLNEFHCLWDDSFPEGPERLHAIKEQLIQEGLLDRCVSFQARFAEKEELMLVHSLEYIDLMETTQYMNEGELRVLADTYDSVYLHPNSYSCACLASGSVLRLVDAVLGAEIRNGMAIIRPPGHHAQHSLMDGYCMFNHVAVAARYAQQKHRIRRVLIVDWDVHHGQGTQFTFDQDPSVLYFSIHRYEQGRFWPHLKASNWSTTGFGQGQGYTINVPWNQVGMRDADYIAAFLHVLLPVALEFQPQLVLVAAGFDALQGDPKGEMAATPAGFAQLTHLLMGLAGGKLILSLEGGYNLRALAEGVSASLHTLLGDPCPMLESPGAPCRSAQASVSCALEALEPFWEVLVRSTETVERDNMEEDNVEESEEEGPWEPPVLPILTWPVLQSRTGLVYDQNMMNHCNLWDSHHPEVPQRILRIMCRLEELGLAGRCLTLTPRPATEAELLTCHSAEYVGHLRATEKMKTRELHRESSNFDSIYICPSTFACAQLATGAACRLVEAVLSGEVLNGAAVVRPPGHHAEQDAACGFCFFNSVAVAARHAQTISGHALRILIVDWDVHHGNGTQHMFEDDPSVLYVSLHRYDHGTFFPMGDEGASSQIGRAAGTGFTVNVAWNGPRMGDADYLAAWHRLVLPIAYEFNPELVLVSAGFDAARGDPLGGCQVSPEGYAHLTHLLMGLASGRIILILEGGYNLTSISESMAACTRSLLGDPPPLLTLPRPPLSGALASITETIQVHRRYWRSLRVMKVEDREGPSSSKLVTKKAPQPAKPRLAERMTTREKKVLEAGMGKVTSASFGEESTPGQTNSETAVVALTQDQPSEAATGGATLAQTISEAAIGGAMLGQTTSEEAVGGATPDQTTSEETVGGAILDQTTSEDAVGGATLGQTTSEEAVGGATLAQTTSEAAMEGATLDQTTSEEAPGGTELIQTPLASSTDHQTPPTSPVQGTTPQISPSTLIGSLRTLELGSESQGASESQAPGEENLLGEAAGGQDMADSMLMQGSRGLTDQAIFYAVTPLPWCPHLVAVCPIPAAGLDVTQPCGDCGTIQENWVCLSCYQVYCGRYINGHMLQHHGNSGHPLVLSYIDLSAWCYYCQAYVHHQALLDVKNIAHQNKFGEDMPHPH
protocol.details: HDAC6 enzyme activity inhibition assay (HDAC Fluorimetric Drug Discovery Kit)
Assay type: biochemical
test.parameters: HDAC6 over HDAC1
test.readout: HDAC6 selectivity (fold)

1) CCN1CCC2(CC1)CN(C(=O)N(Cc1ccc(-c3nnc(C(F)F)o3)cc1F)c1ccccc1)C2: 588
2) COc1ccc(N(Cc2ccc(-c3nnc(C(F)F)o3)cn2)C(=O)N2CCN(C3COC3)CC2)cc1: 62
3) C[C@@H]1CN(C(=O)N(Cc2ccc(-c3nnc(C(F)(F)F)o3)cc2)c2ccccc2)C[C@H](C)N1C: 213
4) O=C(N1CCOCC1)N(Cc1ccc(-c2nnc(C(F)F)o2)cc1F)c1ccc(F)c(Cl)c1: 176
